// data source = patent US20160159924A1

target: T1, recombinant human sc-uPA (human, UniProt P00749 21-431); assay: SPR, mAb immobilised
T1 construct: 411 amino acid single-chain zymogen expressed in HEK293; the 20-residue signal peptide is not present in the mature protein; also called human single-chain uPA; pro-uPA
endpoint label: Kd (nM)
Number only, in nM; omit the unit.

Below, 2 binders whose answers are already recorded.
- rec0266-0000-0010-VH_D95T (antibody, mouse IgG1, V domains shown) VH: DVKLVESGGGLVKPGGSLKLSCVASGFTFSSYTMSWVRQTPEKRLEWVATISGGGSHIYYADSVKGRFTISRDNAKNTLYLQMSSLKSEDTAIYYCTRTGRDGSWFAYWGQGTLVTVSA VL: DIVMTQSPATLSVTPGDRVSLSCRTSQSIGDYLHWYQQKSHESPRLLIKYVSQSISGIPSRFSGSGSGSDFTLSINSVESEDVGVYYCQNSHSFPLTFGSGTKLELKR: 1.5
- rec0266-0000-0010-VH_G99T (antibody, mouse IgG1, V domains shown) VH: DVKLVESGGGLVKPGGSLKLSCVASGFTFSSYTMSWVRQTPEKRLEWVATISGGGSHIYYADSVKGRFTISRDNAKNTLYLQMSSLKSEDTAIYYCTRDGRDTSWFAYWGQGTLVTVSA VL: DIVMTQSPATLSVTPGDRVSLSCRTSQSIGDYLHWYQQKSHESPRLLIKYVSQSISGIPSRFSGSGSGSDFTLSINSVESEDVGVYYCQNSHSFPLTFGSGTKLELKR: 5.4

Lab note: next binder to report on.
Prompt: Which Kd value is on record for rec0266-0000-0010-VH_D95G (antibody, mouse IgG1, V domains shown) VH: DVKLVESGGGLVKPGGSLKLSCVASGFTFSSYTMSWVRQTPEKRLEWVATISGGGSHIYYADSVKGRFTISRDNAKNTLYLQMSSLKSEDTAIYYCTRGGRDGSWFAYWGQGTLVTVSA VL: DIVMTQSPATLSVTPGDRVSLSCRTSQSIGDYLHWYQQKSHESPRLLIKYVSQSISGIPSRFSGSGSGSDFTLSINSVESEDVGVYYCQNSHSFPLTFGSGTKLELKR ?
Completion: 12
